B1: HDV Ribozyme (parent)
chain: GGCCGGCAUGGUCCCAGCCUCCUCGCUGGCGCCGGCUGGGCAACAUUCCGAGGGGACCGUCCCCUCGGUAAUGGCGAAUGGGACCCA

- Variants of: B1
- test-protocol: self-cleavage, relative activity (ratio to wild type); higher = more cleavage; co-transcriptional
Is self-cleavage at least 0.4? Then T. If not, F.

{"sequence-variant": "C36G G73A", "assigned-category": "F"}
{"sequence-variant": "C19U G34A", "assigned-category": "F"}
{"sequence-variant": "C14U C58A", "assigned-category": "T"}
{"sequence-variant": "G52A C58U", "assigned-category": "T"}
{"sequence-variant": "C15A C61G", "assigned-category": "T"}
{"sequence-variant": "C44A C85A", "assigned-category": "T"}
{"sequence-variant": "C44G A78U", "assigned-category": "F"}
{"sequence-variant": "U9C U12C", "assigned-category": "F"}
{"sequence-variant": "C41G A42G", "assigned-category": "F"}
{"sequence-variant": "G25C C36A", "assigned-category": "F"}
{"sequence-variant": "U47G C63U", "assigned-category": "T"}
{"sequence-variant": "C14G C48A", "assigned-category": "T"}
{"sequence-variant": "C41U G55U", "assigned-category": "T"}
{"sequence-variant": "C13A G39U", "assigned-category": "F"}
{"sequence-variant": "C13G C30G", "assigned-category": "F"}
{"sequence-variant": "C58A U69C", "assigned-category": "T"}
{"sequence-variant": "U12G G31A", "assigned-category": "F"}
{"sequence-variant": "C62G G81A", "assigned-category": "F"}
{"sequence-variant": "G39C U47A", "assigned-category": "F"}
{"sequence-variant": "G50C G55U", "assigned-category": "T"}
{"sequence-variant": "U27G C30U", "assigned-category": "T"}
{"sequence-variant": "U27C", "assigned-category": "T"}
{"sequence-variant": "C14A G53C", "assigned-category": "T"}
{"sequence-variant": "G34C G53A", "assigned-category": "F"}
{"sequence-variant": "C48G C62G", "assigned-category": "F"}
{"sequence-variant": "A8G C62A", "assigned-category": "T"}
{"sequence-variant": "U20A C61A", "assigned-category": "F"}
{"sequence-variant": "U23A G59U", "assigned-category": "T"}
{"sequence-variant": "G1A A87C", "assigned-category": "F"}
{"sequence-variant": "C13G C58A", "assigned-category": "F"}
{"sequence-variant": "U37G A45U", "assigned-category": "F"}
{"sequence-variant": "G5A A87G", "assigned-category": "F"}
{"sequence-variant": "G1A U20A", "assigned-category": "F"}
{"sequence-variant": "G34A C63A", "assigned-category": "F"}
{"sequence-variant": "G5C U60G", "assigned-category": "F"}
{"sequence-variant": "C44G G68C", "assigned-category": "T"}
{"sequence-variant": "G80A A87G", "assigned-category": "T"}
{"sequence-variant": "C4A G17C", "assigned-category": "F"}
{"sequence-variant": "G1U G40C", "assigned-category": "T"}
{"sequence-variant": "C48U C63G", "assigned-category": "T"}
{"sequence-variant": "C7U G81A", "assigned-category": "F"}
{"sequence-variant": "C19U C22U", "assigned-category": "F"}
{"sequence-variant": "C64G A87G", "assigned-category": "T"}
{"sequence-variant": "U69G C85U", "assigned-category": "T"}
